# measured.target: reactive oxygen species generated in kidney membrane (NADPH oxidase)
# protocol.description: Inhibition of reactive oxygen species generation in kidney membrane (lucigenin-based assay)
# condition.details: 37° C. for 10 minutes, luminescence, compounds at 40, 10, 2.5, 0.625, 0 μM
Lab note: anything with EC50 below 900 nM is marked Criterion met; values at 900 nM or higher are marked Criterion not met.

Task item: Confirm or reject: EC50 of Oc1cc(C=Cc2ccc(Cl)c(Cl)c2)nn1-c1ccccn1 [Compound 9d] lies strictly below 900 nM
Reply: Criterion not met

Task item: Confirm or reject: EC50 of Oc1cc(CCc2ccccc2)nn1-c1ccccn1 [Compound 3d] lies strictly below 900 nM
Reply: Criterion not met

Task item: Confirm or reject: EC50 of COc1ccc(C=Cc2cc(O)n(-c3ccccn3)n2)cc1OC [Compound 9c] lies strictly below 900 nM
Reply: Criterion met

Task item: Confirm or reject: EC50 of Oc1cc(COc2ccc(Cl)cc2Cl)nn1-c1ccccn1 [Compound 6d] lies strictly below 900 nM
Reply: Criterion not met

Task item: Confirm or reject: EC50 of Oc1ccc(C=Cc2cc(O)n(-c3ccccn3)n2)cc1 [Compound 9k] lies strictly below 900 nM
Reply: Criterion not met

Task item: Confirm or reject: EC50 of Oc1cc(COc2ccccc2)nn1-c1ccccn1 [Compound 6a] lies strictly below 900 nM
Reply: Criterion not met

Task item: Confirm or reject: EC50 of Oc1cc(COc2ccc3ccccc3c2)nn1-c1ccccn1 [Compound 6b] lies strictly below 900 nM
Reply: Criterion met

Task item: Confirm or reject: EC50 of Oc1cc(C=Cc2ccccc2)nn1-c1ccccn1 [Compound 9a] lies strictly below 900 nM
Reply: Criterion met

Task item: Confirm or reject: EC50 of Oc1cc(Cc2ccc(Cl)cc2)nn1-c1ccccn1 [Compound 3e] lies strictly below 900 nM
Reply: Criterion not met

Task item: Confirm or reject: EC50 of Oc1cc(C=Cc2ccc(C(F)(F)F)cc2)nn1-c1ccccn1 [Compound 9f] lies strictly below 900 nM
Reply: Criterion met

Task item: Confirm or reject: EC50 of COc1ccc(C=Cc2cc(O)n(-c3ccccn3)n2)cc1 [Compound 9b] lies strictly below 900 nM
Reply: Criterion met
